Protein target, amino acids: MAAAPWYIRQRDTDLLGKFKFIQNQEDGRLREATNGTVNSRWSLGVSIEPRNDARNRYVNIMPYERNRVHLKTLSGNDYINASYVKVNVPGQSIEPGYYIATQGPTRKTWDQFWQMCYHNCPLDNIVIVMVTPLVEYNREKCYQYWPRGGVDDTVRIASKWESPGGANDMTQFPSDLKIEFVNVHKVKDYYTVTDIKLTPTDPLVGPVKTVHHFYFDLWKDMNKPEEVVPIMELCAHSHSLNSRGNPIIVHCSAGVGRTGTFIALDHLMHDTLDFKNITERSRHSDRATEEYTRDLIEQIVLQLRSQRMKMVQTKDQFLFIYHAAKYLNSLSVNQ
A compilation of published IC50 results with the protein given by its sequence.
Give bare numbers, in µM.

The observed IC50 for C/C(=C1/C=CC(=O)C(C(=O)O)=C1)c1ccc(O)c(C(=O)O)c1 when tested with the protein given by its sequence stands at 30

Tested system the protein given by its sequence; IC50 recorded for O=C(O)c1cc(Cc2cc(Cc3ccccc3)c(O)c(C(=O)O)c2)cc(Cc2ccccc2)c1O was 103

O=C(O)COc1c(O)cc(-c2cccc(C(F)(F)F)c2)cc1OCc1ccc(C(F)(F)F)cc1 tested on the protein given by its sequence gave IC50: 17

Okay, here is my list. What is IC50 for each of these?
1. O=C(O)COc1c(O)cc(-c2cc(C(F)(F)F)cc(C(F)(F)F)c2)cc1OCc1ccc(C(F)(F)F)cc1
2. COc1cc(S(=O)(=O)O)c(C)cc1N=Nc1c(O)ccc2cc(S(=O)(=O)O)ccc12
3. Cc1[nH]n(-c2ccccc2)c(=O)c1N=Nc1c(O)cc(S(=O)(=O)O)c2ccccc12
4. O=C(O)COc1c(O)cc(-c2ccc(C(F)(F)F)cc2)cc1OCc1ccccc1
5. O=C(O)COc1c(O)cc(-c2ccc(C(F)(F)F)cc2)cc1OCc1ccc(C(F)(F)F)cc1
6. O=C(O)c1cc(-c2ccccc2)cc(Cc2cc(-c3ccccc3)cc(C(=O)O)c2O)c1O

Marked response:
1: 9; 2: 410; 3: 140; 4: 17; 5: 23; 6: 86
